Parameter: inhibition at 110 µM. Scope: all listed entries.
Test system: C. elegans
assayExplanation: microbe, parasite or virus in culture
measurementConditions: Caenorhabditis elegans, 24 h, read-out: Percentage of motility inhibition 24 h, Table S2, C. elegans SS assay, 110 μM, 24 h, averages of 4 data points
quantityKind: inhibition at 110 µM (%)

compound="COc1ccc2c(c1OC)CC1c3c(cc4c(c3-2)OCO4)CCN1C (stereo not shown)" recordedresult=4
compound=CC[C@@H](C(=O)[C@@H](C)[C@@H](O)[C@H](C)CCc1ccc(C)c(O)c1C(=O)O)[C@H]1O[C@](CC)([C@H]2CC[C@](O)(CC)[C@H](C)O2)C[C@@H]1C recordedresult=21
compound=O=C(O)c1ccccc1C(=O)Nc1ccc(S(=O)(=O)Nc2nccs2)cc1 recordedresult=0
compound=C[C@@H]1CCC=C2C(=O)C[C@H]3OOC(C)(C)[C@H]3[C@]21C recordedresult=13

* * *

Tested on: C. elegans
assayExplanation: microbe, parasite or virus in culture
measurementConditions: Caenorhabditis elegans, 0 h, read-out: Percentage of motility inhibition 0 h, Table S2, C. elegans SS assay, 110 μM, 0 h, averages of 4 data points
Parameter: inhibition at 110 µM. Scope: all listed entries.
quantityKind: inhibition at 110 µM

compound="CNC(=O)c1cccnc1 [N‐Methylnicotinamide]" recordedresult=3%
compound="C=C1C(=O)O[C@H]2[C@H]1CCC(C)=C1CC[C@@](C)(O)[C@@H]12 [Micheliolide]" recordedresult=0%
compound="CC(C)=CCC[C@@H](C)CC=O [(R)-(+)-Citronellal]" recordedresult=0%
compound=CC(C)=C/C=C1\O[C@@H]2CC(C)=CC(=O)[C@@H]2[C@]1(C)O recordedresult=18%

* * *

System: C. elegans
assayExplanation: microbe, parasite or virus in culture
measurementConditions: Caenorhabditis elegans, 24 h, read-out: Percentage of motility inhibition 24 h, Table S2, C. elegans SS assay, 110 μM, 24 h, averages of 4 data points
Assign class by inhibition at 110 µM: not lower than 3% means Yes; lower than 3% means No.

molecule="O=C(O)CCCCCCCC(=O)O [Azelaic acid]" cat=No
molecule="COc1cc(C=O)ccc1O [Vanillin]" cat=Yes
molecule="COc1ccc2c(OC)c3ccoc3nc2c1OC [Skimmianine]" cat=Yes
molecule="C[C@@H]1[C@H]2[C@H](O[C@@H]3O[C@H](CO)[C@@H](O)[C@H](O)[C@H]3O)OC=C(C(=O)O)[C@H]2C[C@@H]1O [Loganic acid]" cat=Yes

* * *

Tested on: C. elegans
measurementConditions: Table S2, C. elegans SS assay, 110 μM, 0 h, averages of 4 data points
quantityKind: Percentage of motility inhibition 0 h (%)

compound="COc1ccc(-c2cc(=O)c3c(OC)c(OC)c(OC)cc3o2)cc1 [Scutellarein tetramethyl ether]" quantitykind="Percentage of motility inhibition 0 h" recordedresult=0
compound="CO[C@@]1(NC(=O)Cc2cccs2)C(=O)N2C(C(=O)[O-])=C(COC(N)=O)CS[C@@H]21.[Na+] [Cefoxitin (sodium)]" quantitykind="Percentage of motility inhibition 0 h" recordedresult=0
compound="CC1(C)[C@@H](O)CC[C@]2(C)[C@H]3CC=C4[C@@H]5C[C@@]6(C)C[C@H](OC6=O)[C@]5(C)CC[C@@]4(C)[C@]3(C)CC[C@@H]12 [Wilforlide A]" quantitykind="Percentage of motility inhibition 0 h" recordedresult=7
compound="CC(=O)OC1CC2(O)C(OC(=O)c3ccccc3)C3C4(OC(C)=O)COC4CC(O)C3(C)C(O)C(OC(C)=O)C(=C1C)C2(C)C (centres unmarked) [9-Dihydro-13-acetylbaccatin III]" quantitykind="Percentage of motility inhibition 0 h" recordedresult=0
compound="COc1cc2c(cc1OC)C(Cc1ccc(O)cc1)N(C)CC2 (centres unmarked) [Armepavine]" quantitykind="Percentage of motility inhibition 0 h" recordedresult=0
compound="CS(=O)(=O)O.C[C@H]1COc2c(C3(N)CC3)c(F)cc3c(=O)c(C(=O)O)cn1c23 [Pazufloxacin (mesylate)]" quantitykind="Percentage of motility inhibition 0 h" recordedresult=28
compound="COc1cc2c(cc1OC)-c1cc3ccc(OC)c(O)c3c[n+]1CC2.[OH-] [Palmaturbine (hydroxide)]" quantitykind="Percentage of motility inhibition 0 h" recordedresult=0
compound="CC(C)=CCC[C@](C)(O[C@@H]1O[C@H](CO[C@@H]2OC[C@H](O[C@@H]3OC[C@@H](O)[C@H](O)[C@H]3O)[C@H](O)[C@H]2O)[C@@H](O)[C@H](O)[C@H]1O)[C@H]1CC[C@]2(C)[C@@H]1[C@H](O)C[C@@H]1[C@@]3(C)CC[C@H](O[C@@H]4O[C@H](CO)[C@@H](O)[C@H](O)[C@H]4O[C@@H]4O[C@H](CO)[C@@H](O)[C@H](O)[C@H]4O)C(C)(C)[C@@H]3CC[C@]12C [Ginsenoside Ra1]" quantitykind="Percentage of motility inhibition 0 h" recordedresult=0
compound="CO[C@H]1c2cc(C(C)C)c(O)c(O)c2[C@@]23CCCC(C)(C)[C@@H]2[C@@H]1OC3=O [7-Methoxyrosmanol]" quantitykind="Percentage of motility inhibition 0 h" recordedresult=12
compound="C=C(CCC=C(C)C)[C@H]1CC[C@]2(C)[C@@H]1[C@H](O)C[C@@H]1[C@@]3(C)CC[C@H](O[C@@H]4O[C@H](CO)[C@@H](O)[C@H](O)[C@H]4O[C@@H]4O[C@H](CO)[C@@H](O)[C@H](O)[C@H]4O)C(C)(C)[C@@H]3CC[C@]12C [Ginsenoside Rk1]" quantitykind="Percentage of motility inhibition 0 h" recordedresult=4
compound="CC(C)C[C@H](NP(=O)([O-])O[C@H]1O[C@H](C)[C@@H](O)[C@H](O)[C@@H]1O)C(=O)N[C@@H](Cc1c[nH]c2ccccc12)C(=O)[O-].[Na+].[Na+] [Phosphoramidon (Disodium)]" quantitykind="Percentage of motility inhibition 0 h" recordedresult=19
